# System: ATP;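 note: ATP exposure 15 min at 22 °C before imaging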
# PROTOCOL_NOTES: switch fluorescence ratio, 500 uM ATP over buffer (Cy3 cluster intensity, sum of 5 cycles each) (fold (ratio)); higher = stronger signal-on switching upon ATP binding; sequences stand for … in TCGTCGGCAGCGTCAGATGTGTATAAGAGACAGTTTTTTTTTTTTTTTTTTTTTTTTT…TC
# PROTOCOL_CONDITIONS: aptamer strand: ATP DNA aptamer (quencher-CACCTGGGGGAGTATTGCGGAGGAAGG + anchor), 100 nM annealed; ATP concentration: 500 uM
QUANTITY: switch fluorescence ratio
Give bare numbers.

See these solved cases before continuing.
ACTCTAGGTG: 3.47
CGCTTTTCTT: 1.01

Here are 7 sequences. What values of switch fluorescence ratio were reported for them?
1. AATAATGGAA
2. GATTTTAGAC
3. CGTTGCTGAT
4. ACATTCACGT
5. TCCGTGTGGT
6. ACTAGTTGTC
7. GATTCCATAG

Out:
[0.987, 0.995, 0.972, 1.52, 1.07, 0.991, 1.06]

Here are 2 sequences. What values of switch fluorescence ratio were reported for them?
1. ATTTAAAATG
2. GGGCATGAAT

Out:
1: 0.994; 2: 0.965

Here are 2 sequences. What values of switch fluorescence ratio were reported for them?
1. TTAGCGTGCG
2. GCTATTATAT

Out:
1: 0.953; 2: 1.02

Here are 7 sequences. What values of switch fluorescence ratio were reported for them?
1. GATTAAAAGT
2. TAAGGTTGGC
3. TTAGTGAGGG
4. GTCTACATTG
5. GTTGGTCTGA
6. ATCAGGTGGT
7. GGGGGTCCAT

Out:
1: 0.969; 2: 1.02; 3: 0.99; 4: 0.997; 5: 0.954; 6: 1.19; 7: 0.954

Here are 8 sequences. What values of switch fluorescence ratio were reported for them?
1. TTTGTGTGTT
2. TAAGCGCAGA
3. AATTCCTAGG
4. GGTCCTGGGG
5. GAAAGTCGGA
6. ATCATGATTC
7. GTTCTTGTTC
8. AAAGAACGCT

Out:
1.02
1.01
1.03
1.01
0.998
0.983
1
1.04

Here are 2 sequences. What values of switch fluorescence ratio were reported for them?
1. CTAGCTGACC
2. AGGTAGTTTG

Out:
1.11
0.998

Here are 8 sequences. What values of switch fluorescence ratio were reported for them?
1. TTATTAGTTA
2. GATTTAAGGG
3. CGATTTTAGG
4. CGGGGTTTAG
5. GGTTCTATAG
6. AAGGGGAATA
7. AGACGAAGT
8. TGCTGCGGTG

Out:
0.988
0.993
1
0.992
0.993
1.01
1
0.993

Here are 4 sequences. What values of switch fluorescence ratio were reported for them?
1. GAATCATTTT
2. GCTGCTAGTG
3. TTGCTTACTT
4. TCTTTCGGTG

Out:
1: 1.02; 2: 0.97; 3: 0.996; 4: 1.02

Record for AGCTGGGGTT under target or system ATP: switch fluorescence ratio reported as 0.996
